tgt: T1, midkine (AP-MK) (Homo sapiens, UniProt P21741 P21741:23-143)
T1 chain: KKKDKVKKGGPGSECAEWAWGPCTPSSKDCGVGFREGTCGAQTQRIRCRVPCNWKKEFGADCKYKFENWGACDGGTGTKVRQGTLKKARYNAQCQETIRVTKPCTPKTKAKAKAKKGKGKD
test-name: inhibition; AP-MK binding to HepG2 cells
test-conditions: tags: alkaline phosphatase fusion, APtag-5 vector (GenHunter), 293T culture supernatant
Measured IC50 by item

binder	modifier	IC50 [nM]
GCCAUCGCAAUGGUGAGUGGUUUAUCCGCCUGCGCAUGGC (ssRNA, 5' 40PEG2ts; 3' idT; 2'-OMe at 1-13,19,20,23,28,30-40; 2'-F at U14,U18,U21,U22,U25,C26,C27,C29; 2'-OH at G15,A16,G17,A24) [SEQ ID NO: 7-3]	=	1.7
GCCAUCGCAAUGGUGAGUGGUUUAUCCGCCUGCGCAUGGC (ssRNA, 3' idT; 2'-OMe at 1-13,16,19,20,23,28,30-40; 2'-F at U14,U18,U21,U22,U25,C26,C27,C29; 2'-OH at G15,G17,A24) [SEQ ID NO: 7-5]	<	2
SEQ ID NO: 9-3 (mixed, 2'-OMe at C2,C3,C40 and RNA purines except G15,G17,A24 (2'-OH); 2'-F at all other pyrimidines; 3' 16-nt poly dA (DNA)) RNA: GCCAUCGCAAUGGUGAGUGGUUUAUCCGCCUGCGCAUGGCAAAAAAAAAAAAAAAA	=	3
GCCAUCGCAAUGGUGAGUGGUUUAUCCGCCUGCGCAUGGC (ssRNA, 3' idT; 2'-OMe at 1-13,16,19,20,23,27,28,30-40; 2'-F at U14,U18,U21,U22,U25,C26,C29; 2'-OH at G15,G17,A24) [SEQ ID NO: 7-7]	<	2
GCGCAAUGGUGAGUGGUUUAUCCGCCUGCGC (ssRNA, 3' idT; 2'-OMe at 1-10,12,15,16,19,24,26-31; 2'-F at U14,U17,U18,U21,C22,C23,C25; 2'-OH at G11,G13,A20) [SEQ ID NO: 11]	=	6.3
GCGCAAUGGUGAGUGGUUUAUCCGCCUGCGC (ssRNA, 3' idT; 2'-OMe at 1-10,12,15,16,19,23-31; 2'-F at U14,U17,U18,U21,C22; 2'-OH at G11,G13,A20) [SEQ ID NO: 11-1]	=	7.8
